Each recorded value in this set is attributed to patent US11530244B2.

biological target: PCSK9 (Homo sapiens (Human)); assay: PCSK9 Alexa FRET Standard assay (displacement of AlexaFluor647 tagged cyclic peptide Reagent A); type: binding; conditions: PCSK9 Alexa FRET Standard assay, 0.5 nM PCSK9, 20 nM AF cyclic peptide Reagent A; read-out: IC50
Starred links: 1 amine or outer side, 2 acyl side, 3 side chain; linkers in the order of their positions; H or OH if unused. Positions of bridges follow the written chain, without caps; N, C: chain ends. Non-standard residues stand in square brackets, D forms with d. Residues, ends and D or L forms follow the SMILES beside them. Triazole bridges read from a SMILES are 1,4-linked. Ala(imidazol-2-yl) = N[C@@H](Cc1ncc[nH]1)C(=O)O; Trp(5-F) = N[C@@H](Cc1c[nH]c2ccc(F)cc12)C(=O)O; Lys(N3) = [N-]=[N+]=NCCCC[C@H](N)C(=O)O; X4 = O=C(CCSCc1cccc(CSCCN[*:1])c1)[*:2]; AEF = NCCOc1ccc(C[C@H](N)C(=O)O)cc1; Adipoyl = O=C(CCCCC(=O)[*:2])[*:1]; Lys(Me2) = CN(C)CCCC[C@H](N)C(=O)O; X59 = Fc1ccc(C[*:2])cc1C[*:1]; αMeP = C[C@@]1(C(=O)O)CCCN1; Hpra = C#CCC[C@H](N)C(=O)O; Mpa = O=C(O)CCS
Attribute measured: IC50

>  <Compound>
COc1ccc(C[C@@H]2NC(=O)[C@H](Cc3ncc[nH]3)NC(=O)[C@H](CC(=O)O)NC(=O)[C@H](Cc3c[nH]c4ccc(F)cc34)NC(=O)[C@H](Cc3c[nH]c4ccc(F)cc34)NC(=O)[C@@H](C)NC(=O)[C@H](CCC(N)=O)NC(=O)CCSCc3cccc(c3)CSCCNC(=O)[C@]3(C)CCCN3C2=O)cc1 [Compound 446] (cyclo(D[Ala(imidazol-2-yl)]Y(Me)[αMeP][X4]Q[dA][Trp(5-F)][Trp(5-F)]))

>  <IC50>
1 to 12.1 µM

$$$$
>  <Compound>
COc1ccc(C[C@@H]2NC(=O)[C@H](Cc3cnc[nH]3)NC(=O)[C@H](CC(=O)O)NC(=O)[C@H](Cc3c[nH]c4ccc(F)cc34)NC(=O)[C@H](Cc3c[nH]c4ccc(F)cc34)NC(=O)[C@@H](C)NC(=O)CCCCC(=O)NCCOc3ccc(cc3)C[C@@H](C(N)=O)NC(=O)[C@]3(C)CCCN3C2=O)cc1 [Compound 410] ([dA][Trp(5-F)][Trp(5-F)]DHY(Me)[αMeP][AEF]-NH2; linker N-8 via Adipoyl)

>  <IC50>
1 to 12.1 µM

$$$$

Q: Which IC50 value belongs to COc1ccc(C[C@@H]2NC(=O)[C@H]([C@@H](C)O)NC(=O)[C@@H]3CCCN3C(=O)[C@H](Cc3c[nH]c4ccc(F)cc34)NC(=O)[C@H](Cc3c[nH]c4ccc(F)cc34)NC(=O)[C@@H](C)NC(=O)[C@H](CCCCN)NC(=O)CCSCc3cc(ccc3F)CSC[C@@H](C(N)=O)NC(=O)[C@]3(C)CCCN3C2=O)cc1 [Compound 069] ([Mpa]K[dA][Trp(5-F)][Trp(5-F)]PTY(Me)[αMeP]C-NH2; linker 1-10 via X59) ?
A: 21 to 50 µM

Q: Which IC50 value belongs to COc1ccc(C[C@@H]2NC(=O)[C@H](Cc3ncc[nH]3)NC(=O)[C@H](CC(=O)O)NC(=O)[C@H](Cc3c[nH]c4ccc(F)cc34)NC(=O)[C@H](Cc3c[nH]c4ccc(F)cc34)NC(=O)[C@@H](C)NC(=O)[C@H](CCCCN(C)C)NC(=O)CCSCc3cccc(c3)CSCCNC(=O)[C@]3(C)CCCN3C2=O)cc1 [Compound 464] (cyclo(D[Ala(imidazol-2-yl)]Y(Me)[αMeP][X4][Lys(Me2)][dA][Trp(5-F)][Trp(5-F)])) ?
A: 21 to 50 µM

Q: Which IC50 value belongs to CC(=O)N[C@H]1CCc2cn(nn2)CCCC[C@@H](C(N)=O)NC(=O)[C@]2(C)CCCN2C(=O)[C@H](Cc2ccc(O)cc2)NC(=O)[C@H](Cc2cnc[nH]2)NC(=O)[C@H](CC(=O)O)NC(=O)[C@H](Cc2c[nH]c3ccc(F)cc23)NC(=O)[C@H](Cc2c[nH]c3ccc(F)cc23)NC(=O)CNC(=O)[C@H](C)NC1=O [Compound 339] (Ac-[Hpra]AG[Trp(5-F)][Trp(5-F)]DHY[αMeP][Lys(N3)]-NH2; triazole 1-10) ?
A: 1 to 12.1 µM

====

biological target: human PCSK9 / human LDLR EGFa domain interaction (Homo sapiens (Human), UniProt Q8NBP7); assay: TR-FRET assay of inhibition of the PCSK9-LDLR protein-protein interaction; format: binding; conditions: TR-FRET, 20 nM human PCSK9, 20 nM human LDLR EGFa domain, 2 hours room temperature; read-out: IC50
Sequence (Q8NBP7 153-692): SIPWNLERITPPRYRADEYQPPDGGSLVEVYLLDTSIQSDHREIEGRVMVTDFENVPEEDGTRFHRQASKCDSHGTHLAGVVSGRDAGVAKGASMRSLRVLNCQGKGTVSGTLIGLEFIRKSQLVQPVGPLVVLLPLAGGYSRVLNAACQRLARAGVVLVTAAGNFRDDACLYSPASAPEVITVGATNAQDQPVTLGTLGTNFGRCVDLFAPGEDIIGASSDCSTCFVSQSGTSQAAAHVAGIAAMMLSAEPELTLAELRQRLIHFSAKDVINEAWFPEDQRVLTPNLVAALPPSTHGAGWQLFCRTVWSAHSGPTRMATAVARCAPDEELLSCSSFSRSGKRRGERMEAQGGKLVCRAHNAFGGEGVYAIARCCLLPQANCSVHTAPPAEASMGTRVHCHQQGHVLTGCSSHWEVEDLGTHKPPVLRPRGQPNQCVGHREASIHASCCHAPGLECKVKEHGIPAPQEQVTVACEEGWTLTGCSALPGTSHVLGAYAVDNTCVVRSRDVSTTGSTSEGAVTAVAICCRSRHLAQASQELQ
Sequence (Q8NBP7 31-152 partner): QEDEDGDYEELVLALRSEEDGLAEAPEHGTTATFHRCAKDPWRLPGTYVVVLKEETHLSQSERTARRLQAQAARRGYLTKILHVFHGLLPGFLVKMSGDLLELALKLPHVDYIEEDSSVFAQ
Starred links: 1 amine or outer side, 2 acyl side, 3 side chain; linkers in the order of their positions; H or OH if unused. Positions of bridges follow the written chain, without caps; N, C: chain ends. Non-standard residues stand in square brackets, D forms with d. Residues, ends and D or L forms follow the SMILES beside them. Triazole bridges read from a SMILES are 1,4-linked. ξ: configuration not given here. Trp(5-F) = N[C@@H](Cc1c[nH]c2ccc(F)cc12)C(=O)O; ξPhe(4-COOH) = NC(Cc1ccc(C(=O)O)cc1)C(=O)O; Orn(N3) = [N-]=[N+]=NCCC[C@H](N)C(=O)O; TBMB = c1c(C[*:1])cc(C[*:3])cc1C[*:2]; mXylylene = c1cc(C[*:1])cc(C[*:2])c1; aThr = C[C@H](O)[C@H](N)C(=O)O; αMeP = C[C@@]1(C(=O)O)CCCN1; dOrn = NCCC[C@@H](N)C(=O)O; dPra = C#CC[C@@H](N)C(=O)O; Mpa = O=C(O)CCS
Attribute measured: IC50

>  <Molecule>
CC(=O)N[C@H]1CCCc2cn(nn2)CCC[C@@H](C(N)=O)NC(=O)[C@]2(C)CCCN2C(=O)[C@H](Cc2ccc(O)cc2)NC(=O)[C@H](Cc2cnc[nH]2)NC(=O)[C@H](CC(=O)O)NC(=O)[C@H](Cc2c[nH]c3ccc(F)cc23)NC(=O)[C@H](Cc2c[nH]c3ccc(F)cc23)NC(=O)CNC(=O)[C@H](C)NC1=O

>  <Recorded value>
1 to 12.1 µM

$$$$

Q: Which IC50 value belongs to CO[C@@H](C)[C@@H]1NC(=O)CCSCc2cccc(c2)CSC[C@@H](C(N)=O)NC(=O)[C@]2(C)CCCN2C(=O)[C@H](Cc2ccc(O)cc2)NC(=O)[C@H](Cc2cnc[nH]2)NC(=O)[C@H](CC(=O)O)NC(=O)[C@H](Cc2c[nH]c3ccc(F)cc23)NC(=O)[C@H](Cc2c[nH]c3ccc(F)cc23)NC(=O)CNC1=O [Compound 377] ([Mpa][aThr](Me)G[Trp(5-F)][Trp(5-F)]DHY[αMeP]C-NH2; linker 1-10 via mXylylene) ?
A: 0.0001 to 0.1 µM

Q: Which IC50 value belongs to Cc1cc2cc(c1)CSC[C@@H](C(N)=O)NC(=O)[C@]1(C)CCCN1C(=O)[C@H](Cc1ccc(O)cc1)NC(=O)[C@H](Cc1c[nH]cn1)NC(=O)[C@H](CC(=O)O)NC(=O)[C@H](Cc1c[nH]c3ccc(F)cc13)NC(=O)[C@H](Cc1c[nH]c3ccc(F)cc13)NC(=O)CNC(=O)[C@H](CCCCN)NC(=O)CCSC2 [Compound 357] ([Mpa]KG[Trp(5-F)][Trp(5-F)]DHY[αMeP]C-NH2; linker 1-10 via TBMB) ?
A: 1 to 12.1 µM

Q: Which IC50 value belongs to CC(=O)N[C@@H]1Cc2cn(nn2)CCC[C@@H](C(N)=O)NC(=O)[C@]2(C)CCCN2C(=O)[C@H](Cc2ccc(O)cc2)NC(=O)[C@H](Cc2cnc[nH]2)NC(=O)[C@H](CC(=O)O)NC(=O)[C@H](Cc2c[nH]c3ccc(F)cc23)NC(=O)[C@H](Cc2c[nH]c3ccc(F)cc23)NC(=O)CNC1=O [Compound 335] (Ac-[dPra]G[Trp(5-F)][Trp(5-F)]DHY[αMeP][Orn(N3)]-NH2; triazole 1-9) ?
A: 1 to 12.1 µM

Q: Which IC50 value belongs to CC(=O)N[C@@H]1CCCNC(=O)c2ccc(cc2)CC(C(N)=O)NC(=O)[C@]2(C)CCCN2C(=O)[C@H](Cc2ccc(O)cc2)NC(=O)[C@H](Cc2cnc[nH]2)NC(=O)[C@H](CC(=O)O)NC(=O)[C@H](Cc2c[nH]c3ccc(F)cc23)NC(=O)[C@H](Cc2c[nH]c3ccc(F)cc23)NC(=O)CNC1=O (stereo partly shown) [Compound 327] (Ac-[dOrn]G[Trp(5-F)][Trp(5-F)]DHY[αMeP][ξPhe(4-COOH)]-NH2; lactam 1-9) ?
A: 0.0001 to 0.1 µM
